targetOrTestSystem: 5-hydroxytryptamine receptor 1D (Homo sapiens, UniProt P28221)
Sequence (P28221 whole entry): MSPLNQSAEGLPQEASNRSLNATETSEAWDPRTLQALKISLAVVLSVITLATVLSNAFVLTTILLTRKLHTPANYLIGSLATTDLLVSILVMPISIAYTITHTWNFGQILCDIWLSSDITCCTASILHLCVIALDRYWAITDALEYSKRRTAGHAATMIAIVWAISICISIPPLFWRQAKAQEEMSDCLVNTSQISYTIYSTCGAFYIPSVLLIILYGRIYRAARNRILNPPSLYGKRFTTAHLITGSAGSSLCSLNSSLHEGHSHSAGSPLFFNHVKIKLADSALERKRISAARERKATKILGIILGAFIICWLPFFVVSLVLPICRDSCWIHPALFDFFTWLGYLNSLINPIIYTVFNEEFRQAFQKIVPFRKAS
test: Stimulation of [35S]GTP-gamma-S, binding in CHO cells expressing the 5-hydroxytryptamine 1D receptor
Type: functional, cell-based
pEC50: −log10 of the molar value.
experimentalEndpoint: pEC50

FC(F)(F)c1ccc(CN2CCN(CCCc3c[nH]c4ccc(-n5cnnc5)cc34)CC2)cc1    7.96

a: NC(=O)C(c1ccccc1)N1CCN(CCCc2c[nH]c3ccc(-n4cnnc4)cc23)CC1 (stereo in doubt; 6q)
b: CN1CCN(CCCc2c[nH]c3ccc(-n4cnnc4)cc23)CC1
Decide: a or b , by lowest recorded pEC50. Choose, then provide that item's label.
b

---

targetOrTestSystem: 5-hydroxytryptamine receptor 1D (Homo sapiens, UniProt P28221)
test: Displacement of [3H]5-HT binding to the cloned human 5-hydroxytryptamine 1D receptor stably expressed in CHO cells
Type: cell-based
pIC50: −log10 of the molar value.
experimentalEndpoint: pIC50

a: Fc1cccc(CCN2CCN(CCCc3c[nH]c4ccc(-n5cnnc5)cc34)CC2)c1
b: Fc1ccc(CN2CCN(CCCc3c[nH]c4ccc(-n5cnnc5)cc34)CC2)cc1
c: c1cc2[nH]cc(CCCN3CCOCC3)c2cc1-n1cnnc1
In this exercise, place the 3 compounds in ascending sequence of their recorded pIC50. // respond by listing labels in the order requested
c, a, b
(c: 8.06, a: 9.30, b: 10.00)

A: c1coc(CN2CCN(CCCc3c[nH]c4ccc(-n5cnnc5)cc34)CC2)c1
B: CC(CN1CCN(CCCc2c[nH]c3ccc(-n4cnnc4)cc23)CC1)c1ccccc1 (stereo not given)
Which value of pIC50 is greater, the one for A or the one for B ? Choose, then provide that item's label.
A
(A: 9.40, B: 9.10)

I: O=C1CN(CCCc2c[nH]c3ccc(-n4cnnc4)cc23)CCN1Cc1ccccc1
II: CC(=O)Nc1ccc(CN2CCN(CCCc3c[nH]c4ccc(-n5cnnc5)cc34)CC2)cc1
III: c1ccc(CN2CCN(CCCc3c[nH]c4ccc(-n5cnnc5)cc34)CC2)nc1
IV: O=C1CN(Cc2ccccc2)CCN1CCCc1c[nH]c2ccc(-n3cnnc3)cc12
I would appreciate it if you could sort these 4 compounds by pIC50, starting from the smallest number. // respond by listing labels in the order requested
IV, I, II, III

a: Cc1noc(-c2ccc(CCN3CCN(CCCc4c[nH]c5ccc(-n6cnnc6)cc45)CC3)cc2)n1
b: CC(=O)Nc1cccc(CN2CCN(CCCc3c[nH]c4ccc(-n5cnnc5)cc34)CC2)c1
c: c1c[nH]c(CN2CCN(CCCc3c[nH]c4ccc(-n5cnnc5)cc34)CC2)n1
I would appreciate it if you could sort these 3 compounds by pIC50, starting from the smallest number. // respond by listing labels in the order requested
a, c, b

P: Fc1ccccc1CCN1CCN(CCCc2c[nH]c3ccc(-n4cnnc4)cc23)CC1
Q: CNCC(c1ccccc1)N1CCN(CCCc2c[nH]c3ccc(-n4cnnc4)cc23)CC1 (stereo not given)
Which value of pIC50 is greater, the one for P or the one for Q ? Choose, then provide that item's label.
P
(P: 9.30, Q: 9.05)

A: S=C1CN(CCCc2c[nH]c3ccc(-n4cnnc4)cc23)CCN1Cc1ccccc1
B: CN1CCN(CCCCc2c[nH]c3ccc(-n4cnnc4)cc23)CC1
Decide: A or B , by lowest recorded pIC50. Choose, then provide that item's label.
B

1: CN(C)C(=O)C(c1ccccc1)N1CCN(CCCc2c[nH]c3ccc(-n4cnnc4)cc23)CC1 (stereo not given)
2: c1cnc(N2CCN(CCCc3c[nH]c4ccc(-n5cnnc5)cc34)CC2)nc1
Which value of pIC50 is greater, the one for 1 or the one for 2 ? Choose, then provide that item's label.
2
(2: 9.22, 1: 9.00)

---

targetOrTestSystem: 5-hydroxytryptamine receptor 1D (Homo sapiens, UniProt P28221)
test: Relative efficacy in stimulation of [35S]GTP-gamma-S, binding in CHO cells compared to 5-HT
Type: functional, cell-based
experimentalEndpoint: Relative efficacy (%)

Worked cases, Relative efficacy given:
c1c[nH]c(CN2CCN(CCCc3c[nH]c4ccc(-n5cnnc5)cc34)CC2)n1    68
Fc1ccc(CN2CCN(CCCc3c[nH]c4ccc(-n5cnnc5)cc34)CC2)cc1    77
CN(C)C(=O)C(c1ccccc1)N1CCN(CCCc2c[nH]c3ccc(-n4cnnc4)cc23)CC1 (stereo not given)    68
c1cncc(CCN2CCN(CCCc3c[nH]c4ccc(-n5cnnc5)cc34)CC2)c1    69

1: CN1CCN(CCCc2c[nH]c3ccc(-n4cnnc4)cc23)CC1
2: NC(=O)C(c1ccccc1)N1CCN(CCCc2c[nH]c3ccc(-n4cnnc4)cc23)CC1 (stereo in doubt; 6q)
Decide: 1 or 2 , by lowest recorded Relative efficacy. Choose, then provide that item's label.
2
(2: 61%, 1: 95%)

---

targetOrTestSystem: 5-hydroxytryptamine receptor 1B (Homo sapiens)
Sequence (P28222 whole entry): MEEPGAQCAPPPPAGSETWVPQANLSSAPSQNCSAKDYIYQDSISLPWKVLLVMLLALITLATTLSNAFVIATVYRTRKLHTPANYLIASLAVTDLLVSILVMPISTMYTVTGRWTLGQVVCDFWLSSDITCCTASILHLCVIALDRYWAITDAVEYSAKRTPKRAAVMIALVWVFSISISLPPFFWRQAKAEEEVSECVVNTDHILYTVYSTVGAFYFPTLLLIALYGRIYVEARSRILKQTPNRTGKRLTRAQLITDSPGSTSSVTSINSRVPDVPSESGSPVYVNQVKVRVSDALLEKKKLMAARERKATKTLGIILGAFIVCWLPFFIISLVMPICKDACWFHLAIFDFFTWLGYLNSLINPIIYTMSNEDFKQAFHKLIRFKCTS
test: Displacement of [3H]5-HT binding from cloned human 5-hydroxytryptamine 1B receptor stably expressed in CHO cells.
pIC50: −log10 of the molar value.
experimentalEndpoint: pIC50

Worked cases, pIC50 given:
NC(=O)C(c1ccccc1)N1CCN(CCCc2c[nH]c3ccc(-n4cnnc4)cc23)CC1 (stereo in doubt; 6p)    7.89
CC(=O)Nc1ccc(CCN2CCN(CCCc3c[nH]c4ccc(-n5cnnc5)cc34)CC2)cc1    6.59
CN1CCN(CCCCc2c[nH]c3ccc(-n4cnnc4)cc23)CC1    5.29
FC(F)(F)c1ccc(CN2CCN(CCCc3c[nH]c4ccc(-n5cnnc5)cc34)CC2)cc1    6.55
O=C1CN(Cc2ccccc2)CCN1CCCc1c[nH]c2ccc(-n3cnnc3)cc12    5.41
c1coc(CN2CCN(CCCc3c[nH]c4ccc(-n5cnnc5)cc34)CC2)c1    7.74
Fc1ccccc1CCN1CCN(CCCc2c[nH]c3ccc(-n4cnnc4)cc23)CC1    7.01

A: c1cncc(CCN2CCN(CCCc3c[nH]c4ccc(-n5cnnc5)cc34)CC2)c1
B: c1cc(CN2CCN(CCCc3c[nH]c4ccc(-n5cnnc5)cc34)CC2)co1
Which value of pIC50 is greater, the one for A or the one for B ? Choose, then provide that item's label.
B

---

targetOrTestSystem: 5-hydroxytryptamine receptor 1D (Homo sapiens, UniProt P28221)
test: Displacement of [3H]5-HT binding to the cloned human 5-hydroxytryptamine 1D receptor stably expressed in CHO cells
Format: cell-based
pIC50: −log10 of the molar value.
experimentalEndpoint: pIC50

Worked cases, pIC50 given:
OCC(c1ccccc1)N1CCN(CCCc2c[nH]c3ccc(-n4cnnc4)cc23)CC1 (centres undefined)    9.15
c1ccc(CCCN2CCN(CCCc3c[nH]c4ccc(-n5cnnc5)cc34)CC2)cc1    8.31

P: c1cncc(CCN2CCN(CCCc3c[nH]c4ccc(-n5cnnc5)cc34)CC2)c1
Q: N#Cc1ccc(CN2CCN(CCCc3c[nH]c4ccc(-n5cnnc5)cc34)CC2)cc1
Decide: P or Q , by lowest recorded pIC50. Choose, then provide that item's label.
P

---

targetOrTestSystem: UniProt P28221
test: Relative efficacy in stimulation of [35S]GTP-gamma-S, binding in CHO cells compared to 5-HT
Assay type: functional, cell-based
experimentalEndpoint: Relative efficacy (%)

Fc1ccc(CCN2CCN(CCCc3c[nH]c4ccc(-n5cnnc5)cc34)CC2)cc1    81
CC(=O)Nc1ccc(CN2CCN(CCCc3c[nH]c4ccc(-n5cnnc5)cc34)CC2)cc1    78
CC(=O)Nc1cccc(CN2CCN(CCCc3c[nH]c4ccc(-n5cnnc5)cc34)CC2)c1    70
CC(=O)Nc1ccc(CCN2CCN(CCCc3c[nH]c4ccc(-n5cnnc5)cc34)CC2)cc1    85
c1cc2[nH]cc(CCN3CCCC3)c2cc1-n1cnnc1    120
S=C1CN(CCCc2c[nH]c3ccc(-n4cnnc4)cc23)CCN1Cc1ccccc1    97
NC(=O)C(c1ccccc1)N1CCN(CCCc2c[nH]c3ccc(-n4cnnc4)cc23)CC1 (stereo in doubt; 6p)    77
c1ccc(CCN2CCN(CCCc3c[nH]c4ccc(-n5cnnc5)cc34)CC2)cc1    73
c1ccc(CN2CCN(CCCc3c[nH]c4ccc(-n5cnnc5)cc34)CC2)nc1    67
CN(C)CCc1c[nH]c2ccc(-n3cnnc3)cc12    115
Fc1cccc(CCN2CCN(CCCc3c[nH]c4ccc(-n5cnnc5)cc34)CC2)c1    88
c1cc(CN2CCN(CCCc3c[nH]c4ccc(-n5cnnc5)cc34)CC2)ccn1    66
Fc1ccccc1CCN1CCN(CCCc2c[nH]c3ccc(-n4cnnc4)cc23)CC1    80
Fc1ccc(CCN2CCN(CCCc3c[nH]c4ccc(-n5cnnc5)cc34)CC2)cc1F    91
O=C1CN(CCCc2c[nH]c3ccc(-n4cnnc4)cc23)CCN1Cc1ccccc1    85
CN1CCN(CCc2c[nH]c3ccc(-n4cnnc4)cc23)CC1    61
N#Cc1ccc(CN2CCN(CCCc3c[nH]c4ccc(-n5cnnc5)cc34)CC2)cc1    71
c1cnc(N2CCN(CCCc3c[nH]c4ccc(-n5cnnc5)cc34)CC2)nc1    59
c1ccc(CN2CCN(CCCc3c[nH]c4ccc(-n5cnnc5)cc34)CC2)cc1    57
c1ccc(CNC[C@@H]2CCN(CCc3c[nH]c4ccc(-n5cnnc5)cc34)C2)cc1    102
CC(CN1CCN(CCCc2c[nH]c3ccc(-n4cnnc4)cc23)CC1)c1ccccc1 (centres undefined)    94
c1coc(CN2CCN(CCCc3c[nH]c4ccc(-n5cnnc5)cc34)CC2)c1    66
CNCC(c1ccccc1)N1CCN(CCCc2c[nH]c3ccc(-n4cnnc4)cc23)CC1 (centres undefined)    103
FC(F)(F)c1ccc(CN2CCN(CCCc3c[nH]c4ccc(-n5cnnc5)cc34)CC2)cc1    82
Clc1ccc(CN2CCN(CCCc3c[nH]c4ccc(-n5cnnc5)cc34)CC2)cc1    63
c1ccc(CCCN2CCN(CCCc3c[nH]c4ccc(-n5cnnc5)cc34)CC2)cc1    68
c1cc(CN2CCN(CCCc3c[nH]c4ccc(-n5cnnc5)cc34)CC2)co1    70
c1cncc(CN2CCN(CCCc3c[nH]c4ccc(-n5cnnc5)cc34)CC2)c1    69
OCC(c1ccccc1)N1CCN(CCCc2c[nH]c3ccc(-n4cnnc4)cc23)CC1 (centres undefined)    74
